measured target: T1, Sso7c4 (Saccharolobus (Sulfolobus) solfataricus …, UniProt P81552 2-56)
T1 sequence: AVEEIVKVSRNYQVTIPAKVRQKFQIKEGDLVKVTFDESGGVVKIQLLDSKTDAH
protocol: SPR
Below, each of the binders is paired with its reported pKd value.
Quick note: pKd values are minus log10 of concentrations in mol/L.

{"columns": ["binder", "pKd"],
 "data": [
  ["16-mer duplex (SPR, biotinylated) (dsDNA) DNA 1: CGCGTACGCGTACGCG DNA 2: CGCGTACGCGTACGCG", 5.81]
]}

# next binder below
Per the record, 8-mer duplex (SPR, biotinylated) (dsDNA) DNA 1: CGCTATAGCG DNA 2: CGCTATAGCG has pKd of 5.00
